System: HIV-1 (H9/IIIB strain)
Test description: Multiple round HIV-1 infection assay (Viking assay) in MT4-GFP cells
Assay type: cell-based
Experimental conditions: Table 1; MT4-GFP cells infected with HIV-1 H9/IIIB, 50% normal human serum; read-out: Viking, IC50 (50% NHS)
pIC50: −log10 of the molar value.
Measure name: pIC50

In [3]: df
Out[3]:
                                   compound  observed_result
0  CC(C)OC(=O)CCOP(=O)(CO[C@H](C)Cn1cnc2c(N)ncnc21)NC(C)(C)C(=O)OC(C)C (single isomer, unassigned) [Example 2B]             6.21
1  CCOC(=O)C1(CCOP(=O)(CO[C@H](C)Cn2cnc3c(N)ncnc32)NC(C)(C)C(=O)OC(C)C)CC1 (single isomer, unassigned) [Example 4A]             6.12
2  CC(C)OC(=O)C[C@H](C)OP(=O)(CO[C@H](C)Cn1cnc2c(N)ncnc21)NC(C)(C)C(=O)OC(C)C (single isomer, unassigned) [Example 10A]             7.14
3  CCCOC(=O)C(C)(C)NP(=O)(CO[C@H](C)Cn1cnc2c(N)ncnc21)OCCc1cccc(C(=O)OC(C)C)c1 (single isomer, unassigned) [Example 11B]             6.52
4  CC(C)OC(=O)C(C)(C)COP(=O)(CO[C@H](C)Cn1cnc2c(N)ncnc21)NC(C)(C)C(=O)OC(C)C (single isomer, unassigned) [Example 9A]             6.25
5  CCCSC(=O)C(C)(C)NP(=O)(CO[C@H](C)Cn1cnc2c(N)ncnc21)OCCC(=O)OC(C)C (single isomer, unassigned) [Example 13A]             7.66
